B1: glmS ribozyme (parent)
chain: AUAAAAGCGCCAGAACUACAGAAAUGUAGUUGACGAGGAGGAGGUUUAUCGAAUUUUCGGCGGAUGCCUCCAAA

variants of: B1; assay: KM; higher = weaker cofactor use; RNA array; conditions: with glucosamine-6-phosphate
Hi all, reminder that labels come from KM, split as bottom: < 1000 µM; middle: ≥ 1000 µM and < 3000 µM; top: ≥ 3000 µM

INSERT INTO results (ordered_residues, label_value) VALUES
  ('AUAAAAGCGCCAGAACUACAGAAAUGUAGUUGACGAGGAGGAGGUAUAUCGAAUUUUCGGCGGAUUCCUCCAAA [U46A G66U]', 'top'),
  ('AUAAAAGCGCCAGAACUACAGAAAUGUAUUUGACGAGGAGGAGGUUUAGCGAAUUUUCGGCGGAUGCCUCCAAA [G29U U49G]', 'top'),
  ('AUAAAAGCGCCAGAACUACAGAAAUGUAAUUGACGAGGCGGAGGUUUAUCGAAUUUUCGGCGGAUGCCUCCAAA [G29A A39C]', 'middle'),
  ('AUAAAAGCGCCAGAACUACAGAAAUGUAGUUGACGAGGAGGAGGUUGAUCGAAUUUUCGGCGGAGGCCUCCAAA [U47G U65G]', 'middle'),
  ('AUAAAAGCGCCAGAACUACAGAAAUGUAGUGGACGAGGAGGAGGUUUAGCGAAUUUUCGGCGGAUGCCUCCAAA [U31G U49G]', 'middle'),
  ('AUAAAAGCGCCAGAACUACAGAAAUGUAGUGGCCGAGGAGGAGGUUUAUCGAAUUUUCGGCGGAUGCCUCCAAA [U31G A33C]', 'top'),
  ('AUAAAAGCGCCAGAACUACAGAAAUGUAGUUGACGAGGAGGAGGUAUAUCGAAUUUUCGGCGGAUGUCUCCAAA [U46A C67U]', 'middle'),
  ('AUAAAAGCGCCAGAACUACAGAAAUGUAGUGGACGAGGAGGAGGUUUUUCGAAUGUUCGGCGGGUGCCUCCAAA [U31G A48U U55G A64G]', 'top'),
  ('AUAAAAGCGCAAGUACUACAGAAAUGUAGUUGACGAGGAGGAGGUUUAUCGAAUUUUCGGCGGAUGCCUCCAAA [C11A A14U]', 'bottom'),
  ('AUAAAAGCGCCAGAACUACAGAAAUGUAGUUGACGAGGAGGAGGUUUAUCGAAUUUCCGGCGGAAGCCUCCAAA [U57C U65A]', 'middle'),
  ('AUAAAAGCGCCAGAACUACAGAAAUGUAGUUGACGAGUAGGAGGUUUAUCGAAUUUUCGGCGGAGGCCUCCAAA [G38U U65G]', 'bottom'),
  ('AUAAAAGCGCCAGAACUACAGAAAUGUAGUUGACGAGGAGGAGGUUUAUCGAAUUUUCAGCGGAUGCCCCCAAA [G59A U69C]', 'bottom'),
  ('AUAAAUGCGCCAGAACUACAGAAAUGUAGUUGACGAGGAGGAGGUUUAUCGAAUUAUCGGCGGAUGCCUCCAAA [A6U U56A]', 'middle'),
  ('AUAAAAGCGCCAGAACUACAGAAAUGUAGUUGACGAGGAGGAGGUUUAUCGAAUUUUCGGCGGUUACCUCCAAA [A64U G66A]', 'top'),
  ('AUAAAAGCGCCAGCACUACAGAAAUGUAGUUGACGAGGAGGAGGGUUAUCGAAUUUUCGGCGGAUGCCUCCAAA [A14C U45G]', 'top'),
  ('AUAAAAGCGCCAGAACUACAGAAAUGUAGUUGACGAGGAGGACGUUUAUCGAAUUUUCGGCGGAUGCGUCCAAA [G43C C68G]', 'bottom'),
  ('AUAAAGGCGCCAGAACUACAGAAAUGUAGUUGACGAGGUGGAGGUUUAUCGAAUUUUCGGCGGAUGCCUCCAAA [A6G A39U]', 'middle'),
  ('AUAAAAGCGCCAGAACUACAGAAAUUUAGUUGACGAGGAUGAGGUUUAUCGAAUUUUCGGCGGAUGCCUCCAAA [G26U G40U]', 'bottom'),
  ('AUAAAAGCGCCGGAACUACAGAAAUGUAGCUGACGAGGAGGAGGUUUAUCGAAUUUUCGGCGGAUGCCUCCAAA [A12G U30C]', 'top'),
  ('AUAAAAGCGCCAGGACUACAGAAAUGUACUUGACGAGGAGGAGGUUUAUCGAAUUUUCGGCGGAUGCCUCCAAA [A14G G29C]', 'middle'),
  ('AUAAAAGCGCCAGAACUACAGAAAUGUAAUUGACGAGGAGGAGGAUUAUCGAAUUUUCGGCGGAUGCCUCCAAA [G29A U45A]', 'top'),
  ('AUAAAAGCGCCAGAACUACAGAAAUGUAGUUGACGAGGAGGAGGUCUAUCGAAUUUUCGGCGGAUGCCUCCAAA [U46C]', 'middle'),
  ('AUAAAAGCGCCAGAACUACAGAAAUGUAGUUGACGAGGAGGAGGUUUAUCGAAUGUUGGGCGGAUGCCUCCAAA [U55G C58G]', 'top'),
  ('AUAAAAGCGCCAGAACUACAGAAAUGUAGUUGACGAGGAGGAGGUUUAUCGAAGUUUCGGCGGAGGCCUCCAAA [U54G U65G]', 'top'),
  ('AUAAAAGCGCCAGAACUACAGAAAUGUAGUUGACGAGGAGGAGGUUUAUCGGAAUUUCGGCGGAUGCCUCCAAA [A52G U54A]', 'middle'),
  ('AUAAAAGCGCCAGAUCUACAGAAAUGUAGUUGACGAGGGGGAGGUUUAUCGAAUUUUCGGCGGAUGCCUCCAAA [A15U A39G]', 'middle'),
  ('AUAAAAGCGCCAGGACUACAGAAAUGUAGUUGACGAGGAGGAGGUUUAUCGAAUUUUCGGCGGAUGCCUACAAA [A14G C70A]', 'bottom'),
  ('AUAAAAGCGCCAGAACUACAGAAAUGUAGUUGACGAGGGGGAGGUUUAUCGAUUUUUCGGCGGAUGCCUCCAAA [A39G A53U]', 'bottom'),
  ('AUAAAUGCGCCAGAACUACAGAAAUGUAGUUGACGAGGAGGAGGUUUAUCGAAUUUUCGGCGGAUGCCUUCAAA [A6U C70U]', 'middle');
